Property: Hill Coefficient; scope: individual molecules
target: human ORL1 (Homo sapiens, UniProt P41146); construct: expressed in transfected cells; host or cells: CHO cells (G418-selected); test: [3H]nociceptin binding to membranes of CHO cells transfected with human ORL1; details: Table 5
Sequence (P41146 whole entry): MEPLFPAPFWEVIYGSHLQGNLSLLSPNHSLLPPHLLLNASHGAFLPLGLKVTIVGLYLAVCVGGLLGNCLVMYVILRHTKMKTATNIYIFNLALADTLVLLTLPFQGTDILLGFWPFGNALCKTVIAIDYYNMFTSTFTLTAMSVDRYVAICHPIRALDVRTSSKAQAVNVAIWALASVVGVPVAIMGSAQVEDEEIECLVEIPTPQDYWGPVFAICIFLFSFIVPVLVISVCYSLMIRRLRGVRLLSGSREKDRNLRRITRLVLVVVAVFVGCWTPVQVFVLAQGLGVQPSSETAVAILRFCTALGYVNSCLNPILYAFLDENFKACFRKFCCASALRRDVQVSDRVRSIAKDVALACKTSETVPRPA
Square brackets hold non-standard residues; d marks the D form. Peptide text beside a SMILES is read from it. Phe(4-CH2SO3H) = N[C@@H](Cc1ccc(CS(=O)(=O)O)cc1)C(=O)O; Phe(4-NO2) = N[C@@H](Cc1ccc([N+](=O)[O-])cc1)C(=O)O; Phe(4-F) = N[C@@H](Cc1ccc(F)cc1)C(=O)O; Phe(4-Me) = Cc1ccc(C[C@H](N)C(=O)O)cc1
Answer field: number only, no words.

molecule	measured.on	reading
CC(=O)N[C@@H](CCCNC(=N)N)C(=O)N[C@@H](Cc1ccc(O)cc1)C(=O)N[C@@H](Cc1ccc(F)cc1)C(=O)N[C@@H](CCCNC(=N)N)C(=O)N[C@@H](Cc1c[nH]c2ccccc12)C(=O)N[C@@H](CCCNC(=N)N)C(N)=O [VII-61-B, Ac-Arg-Tyr-Phe(4-F)-Arg-Trp-Arg-NH2] (Ac-RY[Phe(4-F)]RWR-NH2)	human ORL1 (Homo sapiens, UniProt P41146)	1.05
CC(=O)N[C@@H](CCCNC(=N)N)C(=O)N[C@@H](Cc1ccc(O)cc1)C(=O)N[C@@H](Cc1ccc(CS(=O)(=O)O)cc1)C(=O)N[C@@H](CCCNC(=N)N)C(=O)N[C@@H](Cc1c[nH]c2ccccc12)C(=O)N[C@@H](CCCNC(=N)N)C(N)=O [VII-75-B] (Ac-RY[Phe(4-CH2SO3H)]RWR-NH2)	human ORL1 (Homo sapiens, UniProt P41146)	0.75

Return reported Hill Coefficient. Input molecule: CC(=O)N[C@@H](CCCNC(=N)N)C(=O)N[C@@H](Cc1ccc(C)cc1)C(=O)N[C@@H](Cc1ccc(O)cc1)C(=O)N[C@@H](CCCNC(=N)N)C(=O)N[C@@H](Cc1c[nH]c2ccccc12)C(=O)N[C@@H](CCCNC(=N)N)C(N)=O [VII-15-B, Ac-Arg-Phe(4-Me)-Tyr-Arg-Trp-Arg-NH2] (Ac-R[Phe(4-Me)]YRWR-NH2) 0.79

Return reported Hill Coefficient. Input molecule: CC(=O)N[C@@H](CCCNC(=N)N)C(=O)N[C@@H](Cc1ccc([N+](=O)[O-])cc1)C(=O)N[C@@H](Cc1ccc(O)cc1)C(=O)N[C@@H](CCCNC(=N)N)C(=O)N[C@@H](Cc1c[nH]c2ccccc12)C(=O)N[C@@H](CCCNC(=N)N)C(N)=O [VII-23-B, Ac-Arg-Phe(NO2)-Tyr-Arg-Trp-Arg-NH2] (Ac-R[Phe(4-NO2)]YRWR-NH2) 0.74

Return reported Hill Coefficient. Input molecule: CC(=O)N[C@@H](CCCNC(=N)N)C(=O)N[C@@H](Cc1ccc(F)cc1)C(=O)N[C@@H](Cc1ccc(F)cc1)C(=O)N[C@@H](CCCNC(=N)N)C(=O)N[C@@H](Cc1c[nH]c2ccccc12)C(=O)N[C@@H](CCCNC(=N)N)C(N)=O [VII-33-B, Ac-Arg-Phe(4-F)-Phe(4-F)-Arg-Trp-Arg-NH2] (Ac-R[Phe(4-F)][Phe(4-F)]RWR-NH2) 0.89
